# ASSAY SYSTEM: T1, hErbB3.hFc (soluble dimeric human ErbB3 extracellular domain fused to human Fc) (human)
# T1 construct: called dimeric
# T1 sequence (chain, as listed by the source limits assumed): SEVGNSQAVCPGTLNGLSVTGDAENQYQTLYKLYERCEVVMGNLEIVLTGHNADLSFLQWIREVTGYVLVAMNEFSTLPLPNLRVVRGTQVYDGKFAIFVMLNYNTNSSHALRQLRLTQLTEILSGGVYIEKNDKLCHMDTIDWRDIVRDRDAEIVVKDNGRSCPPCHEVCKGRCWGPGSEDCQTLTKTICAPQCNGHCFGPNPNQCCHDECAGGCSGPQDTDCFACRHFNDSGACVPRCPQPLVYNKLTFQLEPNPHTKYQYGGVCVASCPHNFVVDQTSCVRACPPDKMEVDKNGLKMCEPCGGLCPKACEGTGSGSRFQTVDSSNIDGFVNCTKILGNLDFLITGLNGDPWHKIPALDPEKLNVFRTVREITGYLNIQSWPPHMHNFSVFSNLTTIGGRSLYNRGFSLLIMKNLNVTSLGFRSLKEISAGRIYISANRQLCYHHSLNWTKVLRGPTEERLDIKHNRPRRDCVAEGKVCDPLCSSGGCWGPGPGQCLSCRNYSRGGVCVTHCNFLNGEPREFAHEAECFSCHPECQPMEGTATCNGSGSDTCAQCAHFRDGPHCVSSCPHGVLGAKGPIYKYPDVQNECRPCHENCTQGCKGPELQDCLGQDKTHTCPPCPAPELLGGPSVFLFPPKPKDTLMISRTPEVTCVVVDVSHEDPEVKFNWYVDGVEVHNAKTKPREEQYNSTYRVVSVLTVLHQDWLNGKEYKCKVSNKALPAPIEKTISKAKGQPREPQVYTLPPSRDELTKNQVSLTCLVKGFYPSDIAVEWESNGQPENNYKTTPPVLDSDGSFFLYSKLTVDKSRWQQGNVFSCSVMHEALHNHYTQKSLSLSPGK
# PROTOCOL NOTES: blocking ELISA: antibody + 50 pM ErbB3-hFc on neuregulin1b-coated plate
Consider the following binders and their measured Maximal Blocking (%) readings.
Your answer should be a plain number; it is taken to be in %.

Consider the following illustrative entries.
Req: Give its Maximal Blocking (%) value. Item: H1M1819N (antibody, V domains shown, Hybridoma chimeric antibody: human variable domains, mouse constant domains (H1M prefix, mouse Fc)) VH: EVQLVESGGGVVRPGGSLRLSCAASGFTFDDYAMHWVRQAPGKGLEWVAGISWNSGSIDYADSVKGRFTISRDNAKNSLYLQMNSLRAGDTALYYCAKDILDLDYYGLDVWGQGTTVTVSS VL: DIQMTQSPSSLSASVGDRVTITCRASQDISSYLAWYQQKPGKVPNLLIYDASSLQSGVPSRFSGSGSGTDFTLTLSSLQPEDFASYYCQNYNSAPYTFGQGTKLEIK
Resp: 92

Req: Give its Maximal Blocking (%) value. Item: H1M1940N (antibody, V domains shown, Hybridoma chimeric antibody: human variable domains, mouse constant domains (H1M prefix, mouse Fc)) VH: QVQVVESGGGVVQPGRSLRLSCAASGFTFSDYGMHWVRQAPGKGLEWVAIISYDGSNKYYADSVKGRFTVSRDNSKNTLYLQLDSLRPEDAAVFYCAREGAFNLDYYAMDVWGQGTTVTVSS VL: AIQMTQSPSSLSASVGDRVTITCRASQDIRNDLGWYQQKPGKAPNLLIYAASSLQSGVPSRFSGSGSGTDFTLTISSLQPEDFATYYCLQDSNYPLTFGGGTKVEIK
Resp: 80

Req: Give its Maximal Blocking (%) value. Item: H2M1930N (antibody, V domains shown, Hybridoma chimeric antibody: human variable domains, mouse IgG2 Fc (H2M prefix)) VH: EVQLVESGGGLVKPGGSLRLSCVASGFTFSSYNMNWVRQAPGKGLEWVSFISGSSNYIHYADSVKGRFTISRDNAKNALYLQMNSLRAEDTAVYYCARDDGDYDWFDPWGQGTLVTVSS VL: EIVLTQSPGTLSLSPGERATLSCRASQSVSSSYLAWYQQKPGQAPRLLIYGTSSRATGIPDRFSGSGSGTDFTLTISRLEPEDFAVYYCQQYDNSYTFGQGTKLEIK
Resp: 87

Next:
Req: Give its Maximal Blocking (%) value. Item: H2M1827N (antibody, V domains shown, Hybridoma chimeric antibody: human variable domains, mouse IgG2 Fc (H2M prefix)) VH: EVQLVESGGGVVRPGGSLRLSCAASGFTFDDYGMSWVRQAPGKGLECVSGISWNGGNTDYADSVKGRFTISRDNAKNSLYLQMNSLRAEDTALYHCARDGGDWDYFDLWGRGTLVTVSS VL: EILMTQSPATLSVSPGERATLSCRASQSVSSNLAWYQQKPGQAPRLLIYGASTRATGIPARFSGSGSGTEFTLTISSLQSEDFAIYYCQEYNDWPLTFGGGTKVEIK
Resp: 98

Req: Give its Maximal Blocking (%) value. Item: H2M1934N (antibody, V domains shown, Hybridoma chimeric antibody: human variable domains, mouse IgG2 Fc (H2M prefix)) VH: EVQLVQSGGGLVKPGGSLRLSCAASGFTFSNFNMNWVRQAPGKGLEWVSFISSLSTYTYYADSVKGRFTISRDNAKNSLYLQMNSLRAEDTAVYYCARDDGDHDWFDPWGQGTLVTVSS VL: EIVLTQSPDTLSLSPGERATLSCRASQSVSSNYLAWYQQKPGQAPRLLIYSASNRATGIPDRFSGSGSGTDFTLTISRLEPEDFAVYYCQQYDSSYTFGQGTKLEIK
Resp: 80
